- assay-explanation: physchem
- condition-set: water, thermodynamic from solid

- compound: "COc1cc2nccc(Oc3ccc(NC(=O)C4(C(=O)Nc5ccc(F)cc5)CC4)cc3)c2cc1OC [Free base]"
  Solubility: "< 1 µg/mL"
